These measurements were taken from ChEMBL document CHEMBL1127493.

# Test system: Escherichia coli
# experimental protocol: In vitro minimum inhibitory concentration against Escherichia coli UBMS 90-4 (tet M ribosomal protection).
# Type: functional
Reported MIC values follow for various compounds
Value expressed in µg/mL; do not type the unit.

Consider the worked cases shown below.
Report value: MIC, system: Escherichia coli, compound: CCN(CC)c1cc(NC(=O)CN(C)C)c(O)c2c1CC1CC3[C@H](N(C)C)C(=O)C(C(N)=O)=C(O)[C@@]3(O)C(=O)C1=C2O.Cl (stereo partly drawn)
1

Report value: MIC, system: Escherichia coli, compound: CN(C)c1cc(NC(=O)CN)c(O)c2c1CC1CC3[C@H](N(C)C)C(=O)C(C(N)=O)=C(O)[C@@]3(O)C(=O)C1=C2O.O=C(O)C(F)(F)F (stereo partly drawn)
1

Report value: MIC, system: Escherichia coli, compound: CN(C)c1cc(NC=O)c(O)c2c1CC1CC3[C@H](N(C)C)C(=O)C(C(N)=O)=C(O)[C@@]3(O)C(=O)C1=C2O (stereo partly drawn)
1

Next:
Report value: MIC, system: Escherichia coli, compound: CN(C)CC(=O)Nc1cc(N(C)C)c2c(c1O)C(=O)C1=C(O)[C@]3(O)C(O)=C(C(N)=O)C(=O)[C@@H](N(C)C)C3CC1C2.Cl (stereo partly drawn)
0.25
